# binding signal per record follows
- subject_of_test: p52p52 homodimer (Homo sapiens, UniProt Q00653 4-332)
- Sequence: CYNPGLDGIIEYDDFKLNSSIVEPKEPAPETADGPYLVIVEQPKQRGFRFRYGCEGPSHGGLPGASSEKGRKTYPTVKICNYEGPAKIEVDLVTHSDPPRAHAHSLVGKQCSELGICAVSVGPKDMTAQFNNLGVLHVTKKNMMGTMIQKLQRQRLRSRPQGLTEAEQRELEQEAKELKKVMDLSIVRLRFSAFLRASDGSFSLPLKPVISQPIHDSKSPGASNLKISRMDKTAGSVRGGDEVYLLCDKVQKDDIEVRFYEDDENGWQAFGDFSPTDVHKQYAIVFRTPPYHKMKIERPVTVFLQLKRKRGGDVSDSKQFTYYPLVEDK
- assay: protein binding microarray; high values mean tight binding
- measurement_conditions: dsDNA, one strand shown
Your answer is read as z-score, so omit the unit and give the number.

CGAGAGCCCCT = 0.297
AAGAATGTCCC = 0.691
GAATGCCTCCT = -0.691
GAATTCGCCCT = -0.505
CAAATCTCCCT = 0.832

Query: What value of binding signal has been reported for the following sequence? `CAGAACTTCCC`
Response: 0.196

Query: // returns reported binding signal for input `AAGGTCACCCT`
Response: -0.495

Query: Tell me the measured binding signal of `CAGGATCCCCT` , please.
Response: 1.3

Query: Name the recorded binding signal for `AAGGTATTCCT` .
Response: -0.0124

Query: So what's the measured binding signal for this one? `GAAGAAATCCC`
Response: 0.93

----------
- subject_of_test: RELB subunit;p50 subunit (Homo sapiens;Homo sapiens, UniProt Q01201;P19838 120-401;7-356)
- Sequence (Q01201 120-401, chain 1 of 2): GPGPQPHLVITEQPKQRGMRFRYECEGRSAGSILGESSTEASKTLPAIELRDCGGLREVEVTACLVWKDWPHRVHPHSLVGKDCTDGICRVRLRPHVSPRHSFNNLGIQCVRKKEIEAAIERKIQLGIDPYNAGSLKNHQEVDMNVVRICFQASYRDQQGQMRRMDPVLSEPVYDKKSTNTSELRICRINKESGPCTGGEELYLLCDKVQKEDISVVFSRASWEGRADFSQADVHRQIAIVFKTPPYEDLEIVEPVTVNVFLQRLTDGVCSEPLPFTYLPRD
- Sequence (P19838 7-356, chain 2 of 2): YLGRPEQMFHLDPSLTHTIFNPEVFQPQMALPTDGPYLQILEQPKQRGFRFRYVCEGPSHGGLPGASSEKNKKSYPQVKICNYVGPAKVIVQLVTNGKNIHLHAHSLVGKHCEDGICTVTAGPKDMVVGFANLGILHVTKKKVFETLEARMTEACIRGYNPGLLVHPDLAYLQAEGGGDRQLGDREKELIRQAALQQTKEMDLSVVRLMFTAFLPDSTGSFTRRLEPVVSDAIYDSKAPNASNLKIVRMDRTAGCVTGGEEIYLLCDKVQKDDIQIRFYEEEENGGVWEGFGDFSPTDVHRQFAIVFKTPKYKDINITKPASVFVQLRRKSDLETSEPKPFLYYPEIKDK
- assay: protein binding microarray; high values mean tight binding
- measurement_conditions: dsDNA, one strand shown
We begin with a simple list: items and their reported binding signal.
API: value field is a number in z-score; no unit string.

Some solved cases for reference:
CAGTAGACCCC = -0.472
GAAGTTATCCC = -0.113
GAATACATCCT = -0.977
GGAGTCACCCT = -0.378

Query: Return reported binding signal; argument: `GAGGTTGCCCT`
Response: -0.817

Query: Entry under review: `GGGTAGTTCCT` . Reported binding signal?
Response: -0.0983

Query: What does the record list as binding signal for `CGAAGACTCCC` ?
Response: -0.262

Query: Need binding signal, item `CAGGGTCCCCC`
Response: 1.22

Query: Which binding signal value is on record for `CAAGTAATCCC` ?
Response: -0.117

Query: // returns reported binding signal for input `AAAAATCCCCT`
Response: 3.22

Query: Name the recorded binding signal for `CAGGTTTCCCT` .
Response: 1.28

Query: I'd like to know its binding signal. The sequence in question is `GAGTAATTCCT`
Response: -0.739

Query: Given the sequence `AGGAGTGTCCC` , what is its reported binding signal?
Response: 0.333

Query: # query: binding signal of entry `CAAGAAACCCT`
Response: -0.492

Query: Which measured binding signal value corresponds to `GAAGGGCTCCC` ?
Response: -0.771

Query: Bench note: what binding signal did `AAGGTATTCCT` show?
Response: -0.322

Query: Looking for the measured binding signal of `CAAAGGCTCCT` , can you help?
Response: -1.21

Query: # lookup: binding signal of `GGAGGTACCCT`
Response: 0.0938

Query: I am curious: what binding signal value has been reported for `AAGTGCTCCCT` ?
Response: -0.322

Query: Requested field: binding signal. Item: `CGAGGGTTCCC`
Response: -0.397

----------
- subject_of_test: RELA (p65) subunit of heterodimer;p52 subunit (Homo sapiens;Homo sapiens, UniProt Q04206;Q00653 1-307;4-332)
- assay: protein binding microarray; high values mean tight binding
- measurement_conditions: dsDNA, one strand shown
binding signal values for the sequences below.
Output spec: scalar in z-score, unitless text.

// known answers, use as guide
CAGAATACCCT = 0.477
GAATATATCCC = -0.268
GGAGGCGCCCC = 0.0158
GAAGTAATCCT = -0.977
AGGAGCCTCCC = -0.852
GAGTGTGCCCT = -0.825
CAATGACTCCT = -1.05
GAAATTGCCCT = -0.203
CGAGGCTTCCT = -1.19
GGAAATTTCCT = 1.22

Query: Which measured binding signal value corresponds to `CAAGTTGTCCC` ?
Response: 0.267

Query: Any idea what binding signal was measured for `CAAGTGGCCCT` ?
Response: -0.801

Query: Please give the measured binding signal for this sequence: `GAGTGCGCCCC`
Response: 0.0378

Query: Bench note: what binding signal did `CGATAATTCCC` show?
Response: 0.974

Query: Sample `GGAGATTCCCC` — what was its binding signal?
Response: 2.22

Query: binding signal; subject: `CGGGGTCTCCT`
Response: -0.191

Query: I would be grateful if you could share the reported binding signal for `CGGGAGATCCT` .
Response: 0.0606

Query: Give the measured binding signal of `CGAATACCCCT` .
Response: 1.12

Query: Looking for the measured binding signal of `CGAAATCCCCC` , can you help?
Response: 2.13

Query: Bench note: what binding signal did `AAGTACCTCCT` show?
Response: -0.123

Query: Requested read-out: binding signal. Entry: `AAATGCTTCCC`
Response: -0.314

Query: Reported binding signal for `CAAGAAACCCT` : what is it?
Response: -0.264

----------
- subject_of_test: p52p52 homodimer (Homo sapiens, UniProt Q00653 4-332)
- Sequence: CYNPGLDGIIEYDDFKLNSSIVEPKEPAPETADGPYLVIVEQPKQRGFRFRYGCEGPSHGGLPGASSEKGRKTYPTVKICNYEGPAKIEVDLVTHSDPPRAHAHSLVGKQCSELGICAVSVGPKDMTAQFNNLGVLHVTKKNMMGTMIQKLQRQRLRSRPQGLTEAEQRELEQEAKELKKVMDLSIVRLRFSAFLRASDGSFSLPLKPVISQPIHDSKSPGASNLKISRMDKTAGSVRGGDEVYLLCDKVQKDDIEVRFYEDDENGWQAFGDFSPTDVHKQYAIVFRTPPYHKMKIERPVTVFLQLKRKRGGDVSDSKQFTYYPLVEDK
- assay: protein binding microarray; high values mean tight binding
- measurement_conditions: dsDNA, one strand shown
Recorded binding signal by entry
Lab book: enter the figure in z-score, no units written.

AAATTTCCCCC = 2.84
AGGGTTGCCCT = -0.523
AGAGGTCTCCC = -0.27
AAGTGATTCCT = -0.482
GAAATGACCCT = -0.304

Pending sequence:
Query: Recorded binding signal of `CAGTAGCTCCT` , please.
Response: -0.806

----------
- subject_of_test: RELA (p65) subunit of heterodimer;p50 subunit (Homo sapiens;Homo sapiens, UniProt Q04206;P19838 1-307;7-356)
- Sequence (Q04206 1-307, chain 1 of 2): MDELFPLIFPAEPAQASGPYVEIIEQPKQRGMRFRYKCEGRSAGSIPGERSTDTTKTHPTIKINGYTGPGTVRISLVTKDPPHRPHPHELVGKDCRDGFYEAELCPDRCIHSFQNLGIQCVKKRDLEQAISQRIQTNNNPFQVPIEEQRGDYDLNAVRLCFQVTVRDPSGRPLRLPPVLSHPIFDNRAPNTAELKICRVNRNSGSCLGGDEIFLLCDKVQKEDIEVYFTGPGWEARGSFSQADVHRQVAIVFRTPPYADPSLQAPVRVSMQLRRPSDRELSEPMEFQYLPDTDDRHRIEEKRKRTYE
- Sequence (P19838 7-356, chain 2 of 2): as the sequence (P19838 7-356, chain 2 of 2) above
- assay: protein binding microarray; high values mean tight binding
- measurement_conditions: dsDNA, one strand shown
# strict inequality: binding signal < 0.4 z-score yields label 1, everything else yields label 0

Look over these answered cases.
GGATTAGCCCC = label 0
AGAATGCTCCC = label 1
CGAAAAATCCT = label 1
GGATGCATCCC = label 1
AGGGAGTTCCT = label 0

Query: Item `GAATTTACCCT` : binding signal beneath 0.4 z-score, strictly?
Response: label 0

Query: Consider `CGAGAGCCCCT` . Does its binding signal lie strictly below 0.4 z-score?
Response: label 1

Query: # strict comparison: is reported binding signal < 0.4 z-score? input = `GAAAAATTCCT`
Response: label 1

Query: Bench note: check whether `AAAAGCGTCCC` shows binding signal below 0.4 z-score
Response: label 1

Query: Please state whether binding signal is below 0.4 z-score for `GAAGGTCTCCT`
Response: label 1

Query: Find out if reported binding signal for `CGGAGTATCCC` is less than 0.4 z-score
Response: label 1

Query: In the record for `GGGGGCCTCCC` , is binding signal less than 0.4 z-score?
Response: label 0

Query: Lab note: binding signal threshold 0.4 z-score. Does this sequence come in strictly under it? `AGAAGTCTCCT`
Response: label 1

Query: Could you please tell me whether binding signal recorded for `AAAGATGTCCC` is less than 0.4 z-score?
Response: label 0

Query: I'd appreciate it if you could check whether `CAGGATCCCCT` has binding signal smaller than 0.4 z-score.
Response: label 0

Query: Is the reported binding signal for `AAATAGATCCC` strictly below 0.4 z-score?
Response: label 1

Query: Does the reported binding signal of `CAGGGGTTCCT` stay below 0.4 z-score?
Response: label 1

Query: Problem: For the sequence `GAAGATGCCCC` , is binding signal under 0.4 z-score?
Response: label 0

Query: Lab log: compare recorded binding signal with 0.4 z-score; is it strictly lower for `AAAGTGATCCT` ?
Response: label 1

Query: Item `AAATTTGCCCT` : binding signal beneath 0.4 z-score, strictly?
Response: label 1

Query: Hi there! Is binding signal for `AGAAAATCCCT` below 0.4 z-score, do you know?
Response: label 0

Query: Consider the sequence `GAAGGAACCCT` . Is its binding signal strictly less than 0.4 z-score?
Response: label 1

Query: Is it true that binding signal reported for `GGGGTCGCCCC` is less than 0.4 z-score?
Response: label 0

Query: Answer whether the sequence `AAGTTAGTCCT` has binding signal strictly less than 0.4 z-score
Response: label 1

Query: Find out if reported binding signal for `GGATGACTCCC` is less than 0.4 z-score
Response: label 1

Query: Is 0.4 z-score strictly greater than the sequence's reported binding signal? sequence: `AAAAGGGCCCT`
Response: label 1

Query: Please check: binding signal for `AAATGTGCCCC` , strictly under 0.4 z-score or not?
Response: label 0

Query: Lab log: compare recorded binding signal with 0.4 z-score; is it strictly lower for `CGGTACTCCCT` ?
Response: label 0
